Test system: MOLT-4 leukemia
Assay: NCI-60 one-dose screen, 48 h (100 = growth as untreated, 0 = no growth, -100 = all killed)
Conditions: 10 µM unless noted
About 83,000 compounds went through this panel and 20% of them were active in at least one assay; those are over-represented in the sample as a whole.
test_readout: growth (%)
The answer is to be given in %; state only the numeric part.

Consider the following illustrative entries.
BrCCCc1n(Cc2ccc3ccccc3c2)c2ccccc2[n+]1Cc1ccc2ccccc2c1 : -35.9
CCc1ccc(Oc2c(-c3ccc(OCCc4cccc(C(F)(F)F)c4)cc3O)n[nH]c2C(F)(F)F)cc1 : 4.53
COc1cc(/C=C/C(=O)/C=C/c2cc(OC)c3c(c2OC)OCO3)c(OC)c2c1OCO2 : 18.7
O=[N+]([O-])c1ccccc1NCSc1ccc(Cl)cc1 : 49.7

Proceeding to the next compound to report its growth.
Please fill in: growth reported for Oc1ccc(-c2nc3ccc4[nH]ncc4c3c3c2CCCC3)c2cccnc12 = 5.17

====

Tested on: MOLT-4 leukemia
Assay: NCI-60 one-dose screen, 48 h
Conditions: 10 µM unless noted
The panel holds about 83,000 compounds, 20% with a hit somewhere; the sample as a whole holds those more often. Calls of active or inactive are those of the source. How the source made its calls: active means growth percent below 10; inactive means the rest.
Would you mind answering with one of these outcomes? 1 (yes) for active, 0 (no) for inactive

Qu. So what was the verdict on CCCCCCN1C(=O)/C(=c2\sc3n(c2=O)C2C(NN=3)N(CC)C(=O)N2CC)c2ccccc21 (centres undefined) in this test?
Ans. 0 (no)

Qu. So what was the verdict on O=C(Nc1ccc(-c2nc(-c3cccc(OCCN4CCOCC4)c3)c(-c3ccnc(Br)c3)[nH]2)cc1)c1ccccc1 in this test?
Ans. 1 (yes)

Qu. So what was the verdict on CN(C(=O)NCc1cccc(F)c1Cl)[C@H](COC(=O)Nc1cc2ccccc2cn1)CC(O)CO (some centres undefined) in this test?
Ans. 0 (no)

Qu. So what was the verdict on COc1ccc(-c2[nH]c3ccc(OC)cc3c2/C=C(\C#N)S(=O)(=O)c2ccccc2)cc1 in this test?
Ans. 0 (no)

Qu. So what was the verdict on CNCCCNc1nc2ccccc2c2c(=O)c3cc(F)ccc3sc12 in this test?
Ans. 1 (yes)

Qu. So what was the verdict on COC1=C(C)C(=O)c2c(c(CCCl)c3n2CCC3OC(C)=O)C1=O (centres undefined) in this test?
Ans. 0 (no)

Qu. So what was the verdict on N#Cc1c(Nc2cccc(Cl)c2)sc(C(=O)c2cc3cc(Cl)ccc3o2)c1N in this test?
Ans. 0 (no)

Qu. So what was the verdict on C#C[C@]1(O)CC[C@H]2[C@@H]3CC=C4c5sc(Nc6cc(F)ccc6F)nc5CC[C@]4(C)[C@H]3CC[C@@]21C in this test?
Ans. 1 (yes)

Qu. So what was the verdict on Cc1c(C(=O)NCCCc2ccccc2)sc2ncc(-c3ccc(Br)cc3)n12 in this test?
Ans. 0 (no)

====

Measured growth, listed per entry for reference.
Tested on: CCRF-CEM leukemia
Assay: NCI-60 one-dose screen, 48 h (100 = growth as untreated, 0 = no growth, -100 = all killed)
Conditions: 10 µM unless noted
Description: Growth inhibition of the CCRF-CEM human tumor cell line is measured as a screen for anti-cancer activity. Cells are grown in 96 well plates and exposed to the test compound for 48 hours. Compounds are tested at a single concentration, which is 10^-5 M for most compounds. The reported endpoint is percent growth (GI% or GIPRCNT), where numbers from 0 - 100% represent growth inhibition, and numbers from -100% - 0 represent cell death. For example, a value of 40 represents 60% growth inhibition. […]
The panel holds about 83,000 compounds, 20% with a hit somewhere; the sample as a whole holds those more often. Active and inactive are the calls of the source. How the source made its calls: active means growth percent below 10; inactive means the rest.

Consider the following illustrative entries.
CCOc1c(B(O)O)cccc1-c1nc2ccc3[nH]ncc3c2c2c1CCCC2 : 44% (inactive)
Cc1oc2nc[nH]c(=O)c2c1C(=O)/C=C/c1ccc(Br)cc1 : 6.65% (active)
FC(F)(F)c1cc(Nc2ccc3c(OCCCN4CCOCC4)cccc3n2)ccc1Cl : 24.8% (inactive)
CCCCCCNC(=O)Oc1ccc(/C(=C(\C)c2ccc(Cl)cc2)c2ccc(OCCN3CCCCC3)cc2)cc1 : 34% (inactive)
Cc1ccc(C(=O)NCCNc2nccc(-c3c(-c4cccc(F)c4)nc4sccn34)n2)cc1 : 49.4% (inactive)

Please fill in: growth reported for O=C(N/N=C/[C@H](O)[C@@H](O)[C@@H](O)[C@H](O)CO)c1ccc(NC(=O)c2cccnc2)cc1 = 103% (inactive)

Please fill in: growth reported for CCN1C(=O)N(CC)C2Nn3c(s/c(=C4\C(=O)Nc5ccccc54)c3=O)=NC21 (stereo not given) = 35.9% (inactive)

Please fill in: growth reported for COc1ccc(-c2c(C(=O)NS(C)(=O)=O)n(Cc3cccc(C(F)(F)F)c3)c3ccccc23)cc1 = 75.5% (inactive)

Please fill in: growth reported for Cc1ccc(-c2nc(N3CCN(CC(=O)Nc4ccc(Cl)c(C(F)(F)F)c4)CC3)c3ccccc3n2)cc1 = 89.5% (inactive)

Please fill in: growth reported for CC1=C([Se]CC(OC(=O)[C@@H](CSSC(C)(C)C)NC(=O)OC(C)(C)C)C(=O)NC(C)(C)C)C(=O)c2ccccc2C1=O (stereo not given in full) = -21.6% (active)
